# ASSAYED_TARGET: endogenous TFPI of normal human plasma (human, UniProt P10646 29-304, limits assumed)
# MEASUREMENT_PROTOCOL: cell-based or functional assay
MEASURED_QUANTITY: thrombin peak (nM) at 50.0 nM, FVIII-neutralised plasma, endogenous TFPI
Just the number please, in nM, no unit attached.

Take a look at these entries with their results.
Measured thrombin peak (nM) at 50.0 nM, FVIII-neutralised plasma, endogenous TFPI of Fab 0088 (Fab fragment of mAb 2021) (Fab, V domains shown, free C-terminal cysteine; KPI-2 specific) VH: EVQLVESGGGLVKPGGSLRLSCAASGFTFSNYAMSWVRQTPEKRLEWVATISRSGSYSYFPDSVQGRFTISRDNAKNSLYLQMNSLRAEDTAVYYCARLGGYDEGDAMDSWGQGTTVTVSS VL: DIVMTQTPLSLSVTPGQPASISCKSSQSLLESDGKTYLNWYLQKPGQSPQLLIYLVSILDSGVPDRFSGSGSGTDFTLKISRVEAEDVGVYYCLQATHFPQTFGGGTKVEIKR : 101

Measured thrombin peak (nM) at 50.0 nM, FVIII-neutralised plasma, endogenous TFPI of mAb 2021 (antibody, human IgG4 S228P, kappa, V domains shown) VH: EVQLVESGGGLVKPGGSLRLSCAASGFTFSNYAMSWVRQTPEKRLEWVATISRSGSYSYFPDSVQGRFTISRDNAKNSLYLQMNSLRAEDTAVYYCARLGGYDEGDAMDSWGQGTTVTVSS VL: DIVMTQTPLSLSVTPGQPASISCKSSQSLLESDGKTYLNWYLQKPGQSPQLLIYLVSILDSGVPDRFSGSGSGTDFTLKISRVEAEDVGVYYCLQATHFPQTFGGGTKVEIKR : 118

Measured thrombin peak (nM) at 50.0 nM, FVIII-neutralised plasma, endogenous TFPI of Fab 0094 (Fab fragment of mAb 2007) (Fab, V domains shown, KPI-2 specific) VH: EVQLVESGGGLVKPGGSLRLSCAASGFTFSNYAMSWVRQAPGKGLEWVSTISRSGSYSYYPDSVKGRFTISRDNAKNSLYLQMNSLRAEDTAVYYCARLGGYDEGDAMDSWGQGTTVTVSS VL: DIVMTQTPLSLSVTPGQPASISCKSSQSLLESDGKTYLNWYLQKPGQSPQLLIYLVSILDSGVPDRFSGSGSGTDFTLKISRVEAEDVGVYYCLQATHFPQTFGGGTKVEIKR : 73.9

Okay, next one:
Measured thrombin peak (nM) at 50.0 nM, FVIII-neutralised plasma, endogenous TFPI of Fab 0095 (Fab fragment of mAb 2014) (Fab, V domains shown, KPI-2 specific) VH: EVQLVESGGGLVKPGGSLRLSCAASGFTFSNYAMSWVRQAPGKGLEWVSTISRSGSYSYYADSVKGRFTISRDNAKNSLYLQMNSLRAEDTAVYYCARLGGYDEGDAMDSWGQGTTVTVSS VL: DIVMTQTPLSLSVTPGQPASISCKSSQSLLESDGKTYLNWLLQRPGESPKLLIYLVSILDSGVPDRFSGSGSGTDFTLKISRVEAEDVGVYYCLQATHFPQTFGGGTKVEIKR : 85.4
